# Test Target: BRD4 (BDI_K57-E168) (Homo sapiens)
# Construct: BD1: amino acids K57-E168; made in house
# Assay: TR-FRET bromodomain binding assay, first bromodomain of BRD4
# Protocol Conditions: TR-FRET assay protocol G (compound 0.92 μM-15 pM); 100 nM probe
pKi: −log10 of the molar value.
Quantity Name: pKi

Q. Read the entry Cn1cc2c3c(c[nH]c3c1=O)C(CO)N(c1ccc(F)cc1F)c1ccc(CS(C)(=O)=O)cc1-2 (centres unmarked) and write its reported pKi.
A. 8.09

A: CCNC(=O)N1Cc2c[nH]c3c(=O)n(C)cc(c23)-c2cc(CS(C)(=O)=O)ccc21
B: Cn1cc2c3c(c[nH]c3c1=O)CN(C(=O)c1ccccc1F)c1ccc(CS(C)(=O)=O)cc1-2
C: CCOC(=O)C1CCC(CNC(=O)N2Cc3c[nH]c4c(=O)n(C)cc(c34)-c3cc(CS(C)(=O)=O)ccc32)CC1 (centres unmarked)
D: CN1CCN(Cc2[nH]c3c(=O)n(C)cc4c3c2CN(c2ccc(Cl)cc2)c2ccccc2-4)CC1
Q. Thanks in advance: please rank these 4 entries by pKi, highest to lowest. Reply format: the labels, ordered as requested.
A. D, A, C, B
(D: 8.85, A: 8.41, C: 7.58, B: 7.07)

---

# Test Target: BRD4 (BDI_K57-E168) (Homo sapiens)
# Construct: BD1: amino acids K57-E168; made in house
# Assay: TR-FRET bromodomain binding assay, first bromodomain of BRD4
# Protocol Conditions: TR-FRET assay protocol G (compound 0.92 μM-15 pM); 100 nM probe
pKi: −log10 of the molar value.
Quantity Name: pKi

Q. Item Cn1cc2c3c(c[nH]c3c1=O)CN(C1CCC(NC(=O)OC(C)(C)C)CC1)c1ccc(S(C)(=O)=O)cc1-2 (stereo not drawn) : provide pKi
A. 8.15

a: CCOC(=O)N1Cc2c[nH]c3c(=O)n(C)cc(c23)-c2cc(F)cc(F)c21
b: CNCCCC1c2c[nH]c3c(=O)n(C)cc(c23)-c2cc(CS(C)(=O)=O)ccc2N1c1ccc(F)cc1F (stereo not drawn)
Q. Endpoint returns whichever of a and b has the numerically higher pKi. Label of pick, please.
A. a
(a: 8.17, b: 7.90)

---

# System: breast cancer cell line MX-1
# Assay: MX-1 cell line proliferation assay
# Assay type: cell-based
# Protocol Conditions: MX-1 cells, 3-day proliferation assay, Cell Titer Glo; read-out: Cellular proliferation: EC50
Quantity Name: EC50 (nM)

Q. Read off the recorded EC50 for CC(C)c1ccc(NC(=O)N2Cc3c[nH]c4c(=O)n(C)cc(c34)-c3cc(CS(C)(=O)=O)ccc32)cc1
A. 43.1

Q. Please report EC50 for the following compound: COc1cc(N2Cc3c[nH]c4c(=O)n(C)cc(c34)-c3cc(CS(C)(=O)=O)ccc32)cc(OC)c1OC
A. 118

a: Cn1cc2c3c(c[nH]c3c1=O)CN(CCc1ccccc1)c1c(F)cc(F)cc1-2
b: CCC1c2c[nH]c3c(=O)n(C)cc(c23)-c2cc(S(=O)(=O)CC)ccc2N1CC1CC1 (stereo not drawn)
c: Cn1cc2c3c(c[nH]c3c1=O)C(C(=O)NCC1CC1)N(c1ccc(F)cc1F)c1ccc(CS(C)(=O)=O)cc1-2 (stereo not drawn)
Q. List from greatest to least EC50. Could you list the labels in the order requested?
A. a, c, b
